# TARGET_OR_TEST_SYSTEM: human LAP-TGFβ1 expressed on P3U1 cells (human, UniProt P01137 30-390)
# Sequence (P01137 30-390): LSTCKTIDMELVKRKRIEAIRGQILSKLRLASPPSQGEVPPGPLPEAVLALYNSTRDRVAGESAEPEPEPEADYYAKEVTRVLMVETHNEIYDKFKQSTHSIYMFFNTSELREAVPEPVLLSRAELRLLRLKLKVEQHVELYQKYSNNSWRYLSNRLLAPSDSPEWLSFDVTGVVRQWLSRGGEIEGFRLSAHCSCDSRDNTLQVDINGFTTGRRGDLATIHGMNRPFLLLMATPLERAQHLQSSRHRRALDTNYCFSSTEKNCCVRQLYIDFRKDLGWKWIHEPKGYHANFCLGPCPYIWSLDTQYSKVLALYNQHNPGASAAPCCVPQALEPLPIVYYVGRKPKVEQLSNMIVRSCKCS
# PROCEDURE_SUMMARY: cell-based or functional assay
Below, each entry is listed with its recorded ELISA assay #1 EC50.
// note: answer is a bare numeric in µg/mL

Use the examples below as a reference point.
17BLM (antibody, human IgG1, kappa, L234A L235A, V domains shown) VH: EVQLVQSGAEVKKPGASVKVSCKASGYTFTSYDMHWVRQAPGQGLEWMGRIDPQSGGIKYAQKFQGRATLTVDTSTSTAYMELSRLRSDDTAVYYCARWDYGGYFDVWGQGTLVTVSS VL: DIQMTQSPSSLSASVGDRVTITCRASQDIYNYLNWYQQKPGKAVKLLIYYTSRLETGVPSRFSGSGSGTDYTLTISSLQPEDFATYFCQQGDELPWTFGQGTKLEIKR; 0.0357
20BLM (antibody, human IgG1, kappa, L234A L235A, V domains shown) VH: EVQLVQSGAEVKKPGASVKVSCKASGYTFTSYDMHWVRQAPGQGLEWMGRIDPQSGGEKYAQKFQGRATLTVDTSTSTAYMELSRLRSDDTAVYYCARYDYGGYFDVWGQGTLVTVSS VL: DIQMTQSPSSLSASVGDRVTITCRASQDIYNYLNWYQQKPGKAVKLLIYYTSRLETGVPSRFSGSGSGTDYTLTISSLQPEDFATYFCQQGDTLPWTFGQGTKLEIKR; 0.0574
14BLM (antibody, human IgG1, kappa, L234A L235A, V domains shown) VH: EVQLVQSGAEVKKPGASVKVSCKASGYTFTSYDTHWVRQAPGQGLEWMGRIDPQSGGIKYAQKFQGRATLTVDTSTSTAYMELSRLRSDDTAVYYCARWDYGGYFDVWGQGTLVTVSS VL: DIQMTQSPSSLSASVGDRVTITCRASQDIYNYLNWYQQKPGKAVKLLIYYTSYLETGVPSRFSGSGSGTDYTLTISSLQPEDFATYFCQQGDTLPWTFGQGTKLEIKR; 0.169
06BLM (antibody, human IgG1, L234A L235A, V domains shown, IgG1 L234A L235A D265S/kappa; also called 69BLH; 42BMD) VH: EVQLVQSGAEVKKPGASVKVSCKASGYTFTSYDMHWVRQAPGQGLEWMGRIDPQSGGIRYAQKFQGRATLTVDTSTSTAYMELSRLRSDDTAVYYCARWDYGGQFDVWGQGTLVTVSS VL: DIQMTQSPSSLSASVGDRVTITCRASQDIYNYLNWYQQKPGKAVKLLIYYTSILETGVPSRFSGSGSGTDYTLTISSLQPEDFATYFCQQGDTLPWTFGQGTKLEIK; 0.113

Now examine the next entry.
Consider the binder 08BLM (antibody, human IgG1, kappa, L234A L235A, V domains shown) VH: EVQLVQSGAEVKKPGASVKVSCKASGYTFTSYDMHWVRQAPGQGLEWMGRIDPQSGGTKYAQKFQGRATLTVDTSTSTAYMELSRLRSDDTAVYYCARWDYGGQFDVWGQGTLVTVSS VL: DIQMTQSPSSLSASVGDRVTITCRASQDIYNYLNWYQQKPGKAVKLLIYYTSGLETGVPSRFSGSGSGTDYTLTISSLQPEDFATYFCQQGDTLPWTFGQGTKLEIKR . State its measured ELISA assay #1 EC50.
0.0539
